target: 5-hydroxytryptamine receptor 2A (Rattus norvegicus, UniProt P14842)
Sequence (P14842 whole entry): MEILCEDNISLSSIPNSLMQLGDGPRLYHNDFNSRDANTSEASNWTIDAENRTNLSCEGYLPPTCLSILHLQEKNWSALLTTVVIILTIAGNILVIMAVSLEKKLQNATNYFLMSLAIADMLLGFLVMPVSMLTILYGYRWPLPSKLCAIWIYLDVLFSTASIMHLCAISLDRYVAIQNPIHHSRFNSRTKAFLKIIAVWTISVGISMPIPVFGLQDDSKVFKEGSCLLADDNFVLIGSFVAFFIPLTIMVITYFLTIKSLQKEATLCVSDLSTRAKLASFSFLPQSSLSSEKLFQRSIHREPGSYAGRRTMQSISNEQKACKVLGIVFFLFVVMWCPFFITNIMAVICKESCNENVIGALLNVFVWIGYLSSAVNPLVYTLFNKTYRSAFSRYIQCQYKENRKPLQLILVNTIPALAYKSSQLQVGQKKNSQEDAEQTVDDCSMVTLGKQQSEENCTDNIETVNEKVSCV
PROPERTY LABEL: IC50 (nM)

compound="CC1(C)CN(C2CC(c3ccc(F)cc3)c3ccc(Cl)cc32)CCN1 (stereo unspecified)" target_desc="5-hydroxytryptamine receptor 2A (Rattus norvegicus, UniProt P14842)" property_label=IC50 value_observed=3.2
